target: T1, human MSLN-hFc protein (Acro, Cat. No. MSN-H5253) (human, UniProt Q13421 296-580); assay: ELISA on coated antigen, antibody 10 nM
T1 construct: the method names the coated protein as human MSLN-hFc (Acro); also called human MSLN full-length protein
T1 sequence (Q13421 other isoform, or with tags, fused parts or gaps limits assumed): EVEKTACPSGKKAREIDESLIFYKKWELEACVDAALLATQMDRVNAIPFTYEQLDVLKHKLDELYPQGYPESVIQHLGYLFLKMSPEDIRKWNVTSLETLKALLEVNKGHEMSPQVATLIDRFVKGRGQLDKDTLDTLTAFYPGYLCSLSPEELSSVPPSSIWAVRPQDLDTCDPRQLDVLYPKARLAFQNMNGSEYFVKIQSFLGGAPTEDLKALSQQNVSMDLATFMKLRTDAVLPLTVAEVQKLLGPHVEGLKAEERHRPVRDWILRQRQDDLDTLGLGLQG
property: OD450 (OD450)
Write the answer as a number in OD450, unit excluded.

[[record]]
binder = "F7.33.24-H4 (scFv, not shown: small tags and cut ends, also called S009-F7.33.24 humanized antibody VH1a + VL1) scFv: EVQLVQSGAEVKKPGASVKVSCKASGYTFTSYWMHWVRQAPGQRLEWMGNVNPSSGGSNYNEKFKNRVTITVDKSASTAYMELSSLRSEDTAVYYCAPHYIGSRPGFAYWGQGTLVTVSSGGGGSGGGGSGGGGSDIVMTQSPDSLAVSLGERATINCKASQNVGTNIAWYQQKPGQSPKALIYSASYRYSGVPDRFSGSGSGTDFTLTISSLQAEDVAVYYCQQYNSYPLTFGGGTKVEIK"
test_result = 2.21

[[record]]
binder = "F7.33.24-H10 (scFv, not shown: small tags and cut ends, also called S009-F7.33.24 humanized antibody VH2a + VL1) scFv: EVQLVQSGAEVKKPGASVKVSCKASGYTFTSYWMHWVRQAPGQGLEWMGNVNPSNAGSNYNEKFKNRVTITVDKSASTAYMELSSLRSEDTAVYYCAPHYIGSRPGFAYWGQGTLVTVSSGGGGSGGGGSGGGGSDIVMTQSPDSLAVSLGERATINCKASQNVGTNIAWYQQKPGQSPKALIYSASYRYSGVPDRFSGSGSGTDFTLTISSLQAEDVAVYYCQQYNSYPLTFGGGTKVEIK"
test_result = 2.28


Could you now consider this next binder?
Look up OD450: F7.33.24-H9 (scFv, not shown: small tags and cut ends, also called S009-F7.33.24 humanized antibody VH2 + VL3) scFv: EVQLVQSGAEVKKPGASVKVSCKASGYTFTSYWMHWVRQAPGQGLEWMGNVNPSNGGSNYNEKFKNRVTITVDKSASTAYMELSSLRSEDTAVYYCAPHYIGSRPGFAYWGQGTLVTVSSGGGGSGGGGSGGGGSDIVMTQTPLSLSVTPGQPASISCKASQNVGTNIAWYQQKPGQSPQALIYSASYRYSGVPDRFSGSGSGTDFTLKISRVEAEDVGVYYCQQYNSYPLTFGGGTKVEIK
2.49

These entries and their values trace back to patent US20250250357A1.
